protocolDetails: Chromatographic hydrophobicity index, logD of the compound at pH 7.4
Assay type: physicochemical
measurementContext: buffer
reportedEndpoint: chromatographic logD

1: Cc1ncsc1-c1ccc(CNC(=O)[C@@H]2C[C@@H](O)CN2C(=O)[C@H](C(C)C)N2Cc3ccccc3C2=O)c(OCCCOCCC(=O)C[C@@H]2N=C(c3ccc(Cl)cc3)c3c(sc(C)c3C)-n3c(C)nnc32)c1
2: Cc1sc2c(c1C)C(c1ccc(Cl)cc1)=N[C@@H](CCNCCCCNC(=O)COc1cccc3c1C(=O)N(C1CCC(=O)NC1=O)C3=O)c1nnc(C)n1-2 (stereo not given in full)
Query: Hi team, can someone confirm which has the larger chromatographic logD: 1 or 2 ? Thanks. To answer, give the label that identifies your chosen option.
Response: 1
